# experimental_target: T1, Cynomolgus TCR(AEA41865/AEA41866)-zipper protein (cynomolgus monkey)
# T1 construct: also called cyTCR-zipper protein; cynoTCR zipper
# T1 TCR alpha: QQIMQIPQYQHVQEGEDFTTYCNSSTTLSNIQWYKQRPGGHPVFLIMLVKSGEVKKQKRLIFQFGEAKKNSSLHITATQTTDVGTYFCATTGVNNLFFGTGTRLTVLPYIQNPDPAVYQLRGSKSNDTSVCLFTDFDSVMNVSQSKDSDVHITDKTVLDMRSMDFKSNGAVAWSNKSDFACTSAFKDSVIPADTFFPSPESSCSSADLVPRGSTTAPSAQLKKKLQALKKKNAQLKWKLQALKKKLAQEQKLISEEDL
# T1 TCR beta: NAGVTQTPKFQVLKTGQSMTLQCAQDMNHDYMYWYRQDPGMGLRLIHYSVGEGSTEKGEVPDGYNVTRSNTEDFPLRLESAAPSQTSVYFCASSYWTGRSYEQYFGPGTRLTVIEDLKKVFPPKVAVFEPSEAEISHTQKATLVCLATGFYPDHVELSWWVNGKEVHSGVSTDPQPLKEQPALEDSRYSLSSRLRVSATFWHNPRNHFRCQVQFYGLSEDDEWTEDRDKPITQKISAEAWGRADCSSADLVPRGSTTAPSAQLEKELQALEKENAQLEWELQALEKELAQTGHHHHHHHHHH
# run_description: SPR ProteOn off-rate screen
measurement_label: koff (s⁻¹)

binder	koff [s⁻¹]
T017000391 (VHH) VHH: EVQLVESGGGVVQPGGSLRLSCVASGAVHKINFYGWYRQAPGKEREKVAHISIGDQTDYADSAKGRFTISRDESKNMVYLQMNSLRPEDTALYFCRAMSRIYPYDYWGQGTLVTVSS	0.00161
T017000547 (VHH) VHH: EVQLVESGGGVVQPGGSLRLSCVASGAVHKLNFYGWYRQAPGKEREKVAHISIGDQTDYADSAKGRFTISRDESKNMVYLQMNSLRPEDTALYFCRAFSRIWPYDYWGQGTLVTVSS	0.00156

1. T017000566 (VHH) VHH: EVQLVESGGGVVQPGGSLRLSCVASGYVHKLNFLGWYRQAPGKEREKVAHISIGDQTDYADSAKGRFTISRDESKNMVYLQMNSLRPEDTALYFCRAMSRIWPYDWWGQGTLVTVSS
2. T017000379 (VHH) VHH: EVQLVESGGGVVQPGGSLRLSCVASWDVHQINFYGWYRQAPGKEREKVAHISIGDQTDYADSAKGRFTISRDESKNMVYLQMNSLRPEDTALYFCRAMSKIWPYDYWGQGTLVTVSS
Please state the entry with greater koff among 1 and 2 . Lab note: record the label of whichever item you select.
1
